The measured values listed here are drawn from PubChem BioAssay (NCI).

Test system: A498 renal
Test: NCI tumour cell line growth inhibition, 48 h
Measurement Name: TGI

Field: example entries. Status: answers known.
Molecule	System	TGI
Cc1ccc(C(=O)Nc2ccc(CP(=O)(O)O)cc2CP(=O)(O)O)cc1NC(=O)c1cccc(N)c1	A498 renal	> 100 µM
CCCCN(CCCC)C(=O)C(=O)C(C#N)c1ccc(C)cc1 (centres undefined)	A498 renal	> 100 µM
CC(C)=CCOC(=O)C(C)=[N+]=[N-]	A498 renal	> 100 µM

Below: the item to evaluate.
State its TGI: CC1(Cl)C(=O)NC(=O)N(C2CC(N=[N+]=[N-])C(CO)O2)C1N=[N+]=[N-] (centres undefined) > 100 µM

###

As shown below, each of these compounds has a reported TGI value.
Test system: KM12 colon
Assay: NCI tumour cell line growth inhibition, 48 h

Field: example entries. Status: answers known.
Cc1ccc(C(=O)Nc2ccc(CP(=O)(O)O)cc2CP(=O)(O)O)cc1NC(=O)c1cccc(N)c1 > 100 µM
O=C(O)CN(CCNC(=O)OCC1c2ccccc2-c2ccccc21)CCNC(=O)OCC1c2ccccc2-c2ccccc21 34.7 µM
O=C(O)CSc1nnc(COc2ccc(Cl)cc2)n1-c1ccccc1 > 100 µM

Below: the item to evaluate.
State its TGI: `Nc1nc2cc3nc(N)c(N)nc3cc2nc1N` > 100 µM

###

Test system: HCC-2998 colon
Assay: NCI tumour cell line growth inhibition, 48 h
Measurement Name: TGI

Field: example entries. Status: answers known.
Molecule	System	TGI
COCOC1/C=C/CCCC#C[C@H](C)C(=O)CC1 (stereo partly specified)	HCC-2998 colon	28.9 µM
O=C(O)c1c2c(cc3c1CC1(Cc4ccccc4C1)C3)CCC2	HCC-2998 colon	> 100 µM
O=C(c1ccco1)c1nc2ccc(C(F)(F)F)cc2[n+]([O-])c1C(F)(F)F	HCC-2998 colon	> 100 µM

State its TGI: C=CCN1C(=O)/C(=C/c2ccccc2)N=C1SC1OC(COC(=O)c2ccccc2)C(OC(=O)c2ccccc2)C1OC(=O)c1ccccc1 (stereo unspecified) > 100 µM

###

System: MALME-3M melanoma
Experiment: NCI tumour cell line growth inhibition, 48 h
Measurement Name: GI50

Compound	System	Measurement
O=C(O)CCCCC(CCSCc1ccccc1)SCc1ccccc1 (configuration not stated)	MALME-3M melanoma	87.7 µM
CN(C)CCNc1cc(-c2ccccc2)nc2ccccc12	MALME-3M melanoma	12.6 µM
CC(C)CC(=O)[O-].CC(C)CC(=O)[O-].N.N.N.N.[Co+3].[O-][Cl+3]([O-])([O-])[O-]	MALME-3M melanoma	> 100 µM

State its GI50: `O=C1/C(=C/c2ccc(Br)cc2)C=C(c2ccccc2)N1CCc1ccccc1` 1.5 µM

###

As shown below, each of these compounds has a reported TGI value.
Tested on: SK-OV-3 ovarian
Test: NCI tumour cell line growth inhibition, 48 h

Field: example entries. Status: answers known.
Compound	TGI
COc1cc(O)c(/C=N/N=C(\N)NO)c(OC)c1	> 10 µM
CC1=C(C(=O)Nc2ccc([N+](=O)[O-])cc2)C(c2ccc(N(C)C)cc2)C(C(=O)Nc2ccc([N+](=O)[O-])cc2)=C(C)N1	80 µM
CCCCCCCCCCCCCC(=O)OC1CC(=O)OC1CO (stereo unspecified)	> 100 µM

State its TGI: `CC1=C2C(=O)NN=C2CCN1c1ccc(Br)cc1` > 100 µM

State its TGI: `COc1cccc(-c2cc(=O)c3ccccc3o2)c1N` > 100 µM

State its TGI: CC1OC(n2cc(F)c(=O)[nH]c2=O)CCC1O (stereo unspecified) > 100 µM
